Catalogue of compounds with associated TGI
Tested on: MCF7 breast
method.description: NCI tumour cell line growth inhibition, 48 h
property.name: TGI

[[record]]
compound = "CC(=O)N1N=C(c2ccc(Nc3nc(Nc4ccc(F)cc4)nc(Nc4ccc(F)cc4)n3)cc2)CC1c1ccc(N(C)C)cc1 (stereo not drawn)"
property_name = "TGI"
result = "13.7 µM"

[[record]]
compound = "O=C1C=CC(=O)c2c(O)c3c(c(O)c21)C[C@H](O)[C@H](O)[C@@H]3O"
property_name = "TGI"
result = "3.49 µM"

[[record]]
compound = "CC1=C(O)c2ccccc2C(=O)C1=O"
property_name = "TGI"
result = "> 100 µM"

[[record]]
compound = "CCNC(=O)Oc1ccc(/C(=C(/C)Cc2ccc(OC)cc2)c2ccc(OCCN(CC)CC)cc2)cc1"
property_name = "TGI"
result = "2.41 µM"

[[record]]
compound = "Fc1ccc2c3c([nH]c2c1)CCN(Cc1ccccc1)C3"
property_name = "TGI"
result = "31.3 µM"

[[record]]
compound = "CC(=O)NCC1OC2COC(c3ccccc3)OC2C(NC(=O)c2ccccc2)C1OC(=O)c1ccccc1 (stereo not drawn)"
property_name = "TGI"
result = "> 100 µM"

[[record]]
compound = "CC(=O)NC(NCCN)(c1ccccc1)c1ccccc1"
property_name = "TGI"
result = "> 100 µM"

[[record]]
compound = "COc1cc2c(c(OC)c1OC)-c1ccc(SC)c(=O)cc1[C@@H](O)CC2"
property_name = "TGI"
result = "> 100 µM"

[[record]]
compound = "CCN(CC)CCN(C)c1ccc(CO)c2c1C(=O)c1ccccc1S2=O (stereo not drawn)"
property_name = "TGI"
result = "> 34.5 µM"

[[record]]
compound = "CC(=O)c1ccc2c(c1)CC1(C2)Cc2cc3c(c(C(=O)O)c2C1)CCC3 (stereo not drawn)"
property_name = "TGI"
result = "> 100 µM"

[[record]]
compound = "Nc1nc(NCCCO)cc(=O)[nH]1"
property_name = "TGI"
result = "> 100 µM"

[[record]]
compound = "O=C1O/C(=C/c2ccccc2)C(c2ccccc2)=C1O"
property_name = "TGI"
result = "> 100 µM"

[[record]]
compound = "C#CCN(c1ccc(C(=O)N[C@@H](CCC(=O)N[C@H](CCC(=O)O)C(=O)O)C(=O)O)cc1)C1CCc2cc3nc(CO)[nH]c(=O)c3cc21 (stereo partly drawn)"
property_name = "TGI"
result = "> 100 µM"


Hello, the source for this data is PubChem BioAssay (NCI), in case you need it.
